Recorded growth at 10 µM values for a group of molecules are listed next.
Assay: Cytotoxicity against human HL-60(TB) cells assessed as cell growth at 10^-5 M after 48 hrs by sulforhodamine B assay
Format: functional
Conditions: HL-60, 48 h, read-out: Activity

>  <MOLECULE>
O=C1Nc2ccccc2/C1=C/c1cn(CC(O)Cn2cc(/C=C3\C(=O)Nc4ccccc43)c3ccccc32)c2ccccc12 (stereo not given)

>  <UNITS LABEL>
%

>  <growth at 10 µM>
-10.2

$$$$
>  <MOLECULE>
COc1cc(/C=C2\C(=O)Nc3ccccc32)cc(OC)c1O

>  <UNITS LABEL>
%

>  <growth at 10 µM>
1.88

$$$$
>  <MOLECULE>
CC1=NN(c2cccc(Cl)c2)C(=O)/C1=C\c1cn(CC(O)Cn2cc(/C=C3\C(=O)N(c4cccc(Cl)c4)N=C3C)c3ccccc32)c2ccccc12

>  <UNITS LABEL>
%

>  <growth at 10 µM>
109

$$$$
>  <MOLECULE>
CN1C(=O)C(=Cc2cn(CC(O)Cn3cc(C=C4C(=O)N(C)C(=O)N(C)C4=O)c4ccccc43)c3ccccc23)C(=O)N(C)C1=O

>  <UNITS LABEL>
%

>  <growth at 10 µM>
107

$$$$
>  <MOLECULE>
O=C1NC(=O)C(=Cc2cn(CC(O)Cn3cc(C=C4C(=O)NC(=O)NC4=O)c4ccccc43)c3ccccc23)C(=O)N1

>  <UNITS LABEL>
%

>  <growth at 10 µM>
107

$$$$

----------
Experiment: Cytotoxicity against human SW620 cells assessed as cell growth at 10^-5 M after 48 hrs by sulforhodamine B assay
Type: functional
Details: SW-620, 48 h, read-out: Activity
MEASURED PARAMETER: growth at 10 µM (%)

>  <COMPOUND>
COc1cc(/C=C2\C(=O)Nc3ccccc32)cc(OC)c1O

>  <RECORDED MEASUREMENT>
31.5

$$$$
>  <COMPOUND>
CC1=NN(c2cccc(Cl)c2)C(=O)/C1=C\c1cn(CC(O)Cn2cc(/C=C3\C(=O)N(c4cccc(Cl)c4)N=C3C)c3ccccc32)c2ccccc12

>  <RECORDED MEASUREMENT>
108

$$$$
>  <COMPOUND>
CN1C(=O)C(=Cc2cn(CC(O)Cn3cc(C=C4C(=O)N(C)C(=O)N(C)C4=O)c4ccccc43)c3ccccc23)C(=O)N(C)C1=O

>  <RECORDED MEASUREMENT>
102

$$$$
>  <COMPOUND>
O=C1NC(=O)C(=Cc2cn(CC(O)Cn3cc(C=C4C(=O)NC(=O)NC4=O)c4ccccc43)c3ccccc23)C(=O)N1

>  <RECORDED MEASUREMENT>
102

$$$$
>  <COMPOUND>
O=C1Nc2ccccc2/C1=C/c1cn(CC(O)Cn2cc(/C=C3\C(=O)Nc4ccccc43)c3ccccc32)c2ccccc12 (stereo not given)

>  <RECORDED MEASUREMENT>
-60.4

$$$$

----------
Test: Cytotoxicity against human TK10 cells assessed as cell growth at 10^-5 M after 48 hrs by sulforhodamine B assay
Assay type: functional
Details: TK-10, 48 h, read-out: Activity
MEASURED PARAMETER: growth at 10 µM (%)

>  <COMPOUND>
COc1cc(/C=C2\C(=O)Nc3ccccc32)cc(OC)c1O

>  <MEASURED PARAMETER>
growth at 10 µM

>  <RECORDED MEASUREMENT>
88.5

$$$$
>  <COMPOUND>
CC1=NN(c2cccc(Cl)c2)C(=O)/C1=C\c1cn(CC(O)Cn2cc(/C=C3\C(=O)N(c4cccc(Cl)c4)N=C3C)c3ccccc32)c2ccccc12

>  <MEASURED PARAMETER>
growth at 10 µM

>  <RECORDED MEASUREMENT>
118

$$$$
>  <COMPOUND>
O=C1Nc2ccccc2/C1=C/c1cn(CC(O)Cn2cc(/C=C3\C(=O)Nc4ccccc43)c3ccccc32)c2ccccc12 (stereo not given)

>  <MEASURED PARAMETER>
growth at 10 µM

>  <RECORDED MEASUREMENT>
-15.1

$$$$
>  <COMPOUND>
CN1C(=O)C(=Cc2cn(CC(O)Cn3cc(C=C4C(=O)N(C)C(=O)N(C)C4=O)c4ccccc43)c3ccccc23)C(=O)N(C)C1=O

>  <MEASURED PARAMETER>
growth at 10 µM

>  <RECORDED MEASUREMENT>
117

$$$$
>  <COMPOUND>
O=C1NC(=O)C(=Cc2cn(CC(O)Cn3cc(C=C4C(=O)NC(=O)NC4=O)c4ccccc43)c3ccccc23)C(=O)N1

>  <MEASURED PARAMETER>
growth at 10 µM

>  <RECORDED MEASUREMENT>
105

$$$$

----------
Target: Dihydrofolate reductase (Homo sapiens)
pKi: −log10 of the molar value.

>  <COMPOUND>
O=C1Nc2ccccc2/C1=C/c1cn(CC(O)Cn2cc(/C=C3\C(=O)Nc4ccccc43)c3ccccc32)c2ccccc12 (stereo unspecified)

>  <pKi>
8.23

$$$$

----------
Test system: NCI-H23
Test: Cytotoxicity against human NCI-H23 cells assessed as cell growth at 10^-5 M after 48 hrs by sulforhodamine B assay
Format: functional
Settings: NCI-H23, 48 h, read-out: Activity
Recorded growth at 10 µM values for a group of compounds are listed next.
MEASURED PARAMETER: growth at 10 µM (%)

>  <COMPOUND>
COc1cc(/C=C2\C(=O)Nc3ccccc32)cc(OC)c1O

>  <STUDY TARGET>
NCI-H23

>  <RECORDED MEASUREMENT>
66.4

$$$$
>  <COMPOUND>
O=C1Nc2ccccc2/C1=C/c1cn(CC(O)Cn2cc(/C=C3\C(=O)Nc4ccccc43)c3ccccc32)c2ccccc12 (stereo not given)

>  <STUDY TARGET>
NCI-H23

>  <RECORDED MEASUREMENT>
-67.3

$$$$
>  <COMPOUND>
CC1=NN(c2cccc(Cl)c2)C(=O)/C1=C\c1cn(CC(O)Cn2cc(/C=C3\C(=O)N(c4cccc(Cl)c4)N=C3C)c3ccccc32)c2ccccc12

>  <STUDY TARGET>
NCI-H23

>  <RECORDED MEASUREMENT>
105

$$$$
>  <COMPOUND>
CN1C(=O)C(=Cc2cn(CC(O)Cn3cc(C=C4C(=O)N(C)C(=O)N(C)C4=O)c4ccccc43)c3ccccc23)C(=O)N(C)C1=O

>  <STUDY TARGET>
NCI-H23

>  <RECORDED MEASUREMENT>
87.9

$$$$
>  <COMPOUND>
O=C1NC(=O)C(=Cc2cn(CC(O)Cn3cc(C=C4C(=O)NC(=O)NC4=O)c4ccccc43)c3ccccc23)C(=O)N1

>  <STUDY TARGET>
NCI-H23

>  <RECORDED MEASUREMENT>
94.7

$$$$

----------
Target: Dihydrofolate reductase (Homo sapiens, UniProt P00374)
Sequence (P00374 whole entry): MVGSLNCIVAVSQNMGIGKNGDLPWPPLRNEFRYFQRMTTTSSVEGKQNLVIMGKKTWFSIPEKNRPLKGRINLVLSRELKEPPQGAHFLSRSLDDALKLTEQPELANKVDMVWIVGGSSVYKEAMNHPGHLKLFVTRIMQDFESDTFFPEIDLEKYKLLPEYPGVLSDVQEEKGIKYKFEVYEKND
pIC50: −log10 of the molar value.
Rule: TRUE for pIC50 not less than 6, FALSE for anything less.

>  <COMPOUND>
O=C1NC(=O)C(=Cc2cn(CC(O)Cn3cc(C=C4C(=O)NC(=O)NC4=O)c4ccccc43)c3ccccc23)C(=O)N1

>  <DISCRETE LABEL>
FALSE

$$$$
>  <COMPOUND>
CN1C(=O)C(=Cc2cn(CC(O)Cn3cc(C=C4C(=O)N(C)C(=O)N(C)C4=O)c4ccccc43)c3ccccc23)C(=O)N(C)C1=O

>  <DISCRETE LABEL>
FALSE

$$$$
>  <COMPOUND>
O=C1Nc2ccccc2/C1=C/c1cn(CC(O)Cn2cc(/C=C3\C(=O)Nc4ccccc43)c3ccccc32)c2ccccc12 (stereo not given)

>  <DISCRETE LABEL>
TRUE

$$$$
>  <COMPOUND>
O=C1NC(=S)NC(=O)C1=Cc1cn(CC(O)Cn2cc(C=C3C(=O)NC(=S)NC3=O)c3ccccc32)c2ccccc12

>  <DISCRETE LABEL>
FALSE

$$$$
>  <COMPOUND>
COc1cc(/C=C2\C(=O)Nc3ccccc32)cc(OC)c1O

>  <DISCRETE LABEL>
TRUE

$$$$

----------
Experiment: Cytotoxicity against human MOLT4 cells assessed as cell growth at 10^-5 M after 48 hrs by sulforhodamine B assay
Assay type: functional
Conditions: MOLT-4, 48 h, read-out: Activity
MEASURED PARAMETER: growth at 10 µM (%)

>  <COMPOUND>
O=C1NC(=O)C(=Cc2cn(CC(O)Cn3cc(C=C4C(=O)NC(=O)NC4=O)c4ccccc43)c3ccccc23)C(=O)N1

>  <UNITS LABEL>
%

>  <RECORDED MEASUREMENT>
110

$$$$
>  <COMPOUND>
COc1cc(/C=C2\C(=O)Nc3ccccc32)cc(OC)c1O

>  <UNITS LABEL>
%

>  <RECORDED MEASUREMENT>
0.62

$$$$
>  <COMPOUND>
CC1=NN(c2cccc(Cl)c2)C(=O)/C1=C\c1cn(CC(O)Cn2cc(/C=C3\C(=O)N(c4cccc(Cl)c4)N=C3C)c3ccccc32)c2ccccc12

>  <UNITS LABEL>
%

>  <RECORDED MEASUREMENT>
104

$$$$
>  <COMPOUND>
O=C1Nc2ccccc2/C1=C/c1cn(CC(O)Cn2cc(/C=C3\C(=O)Nc4ccccc43)c3ccccc32)c2ccccc12 (stereo not given)

>  <UNITS LABEL>
%

>  <RECORDED MEASUREMENT>
-29.4

$$$$
>  <COMPOUND>
CN1C(=O)C(=Cc2cn(CC(O)Cn3cc(C=C4C(=O)N(C)C(=O)N(C)C4=O)c4ccccc43)c3ccccc23)C(=O)N(C)C1=O

>  <UNITS LABEL>
%

>  <RECORDED MEASUREMENT>
106

$$$$
